B1: Pistol ribozyme (parent)
chain: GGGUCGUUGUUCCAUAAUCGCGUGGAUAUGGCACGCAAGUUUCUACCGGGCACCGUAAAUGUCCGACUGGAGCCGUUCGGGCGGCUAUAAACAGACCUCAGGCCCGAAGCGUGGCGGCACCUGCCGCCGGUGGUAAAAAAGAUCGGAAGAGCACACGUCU

variants of: B1; assay: aptazyme ON/OFF ratio, guanine; higher = stronger switching; co-transcriptional cleavage with and without guanine
Let's look at some variants and their measured aptazyme ON/OFF ratio.
Keep it simple and answer with nothing but the number.

variant identifier: U7G U8A G9U U10A C12G C13U
aptazyme ON/OFF ratio: 1.04

What does the record list as aptazyme ON/OFF ratio for U7C U8A U10A C12G C13G ?
1.22

What does the record list as aptazyme ON/OFF ratio for U7A G9A U10A U11C C12G C13U ?
1.2

What does the record list as aptazyme ON/OFF ratio for U8A G9U U11G C12U ?
1.51

What does the record list as aptazyme ON/OFF ratio for G9A U10A U11A C13G ?
1.05

What does the record list as aptazyme ON/OFF ratio for U7A U8G G9C U10A C12G C13A ?
1.25
